Target: EGFR T790M/L858R (Homo sapiens, UniProt P00533, L858R/T790M)
Sequence (P00533 25-1210 T790M/L858R): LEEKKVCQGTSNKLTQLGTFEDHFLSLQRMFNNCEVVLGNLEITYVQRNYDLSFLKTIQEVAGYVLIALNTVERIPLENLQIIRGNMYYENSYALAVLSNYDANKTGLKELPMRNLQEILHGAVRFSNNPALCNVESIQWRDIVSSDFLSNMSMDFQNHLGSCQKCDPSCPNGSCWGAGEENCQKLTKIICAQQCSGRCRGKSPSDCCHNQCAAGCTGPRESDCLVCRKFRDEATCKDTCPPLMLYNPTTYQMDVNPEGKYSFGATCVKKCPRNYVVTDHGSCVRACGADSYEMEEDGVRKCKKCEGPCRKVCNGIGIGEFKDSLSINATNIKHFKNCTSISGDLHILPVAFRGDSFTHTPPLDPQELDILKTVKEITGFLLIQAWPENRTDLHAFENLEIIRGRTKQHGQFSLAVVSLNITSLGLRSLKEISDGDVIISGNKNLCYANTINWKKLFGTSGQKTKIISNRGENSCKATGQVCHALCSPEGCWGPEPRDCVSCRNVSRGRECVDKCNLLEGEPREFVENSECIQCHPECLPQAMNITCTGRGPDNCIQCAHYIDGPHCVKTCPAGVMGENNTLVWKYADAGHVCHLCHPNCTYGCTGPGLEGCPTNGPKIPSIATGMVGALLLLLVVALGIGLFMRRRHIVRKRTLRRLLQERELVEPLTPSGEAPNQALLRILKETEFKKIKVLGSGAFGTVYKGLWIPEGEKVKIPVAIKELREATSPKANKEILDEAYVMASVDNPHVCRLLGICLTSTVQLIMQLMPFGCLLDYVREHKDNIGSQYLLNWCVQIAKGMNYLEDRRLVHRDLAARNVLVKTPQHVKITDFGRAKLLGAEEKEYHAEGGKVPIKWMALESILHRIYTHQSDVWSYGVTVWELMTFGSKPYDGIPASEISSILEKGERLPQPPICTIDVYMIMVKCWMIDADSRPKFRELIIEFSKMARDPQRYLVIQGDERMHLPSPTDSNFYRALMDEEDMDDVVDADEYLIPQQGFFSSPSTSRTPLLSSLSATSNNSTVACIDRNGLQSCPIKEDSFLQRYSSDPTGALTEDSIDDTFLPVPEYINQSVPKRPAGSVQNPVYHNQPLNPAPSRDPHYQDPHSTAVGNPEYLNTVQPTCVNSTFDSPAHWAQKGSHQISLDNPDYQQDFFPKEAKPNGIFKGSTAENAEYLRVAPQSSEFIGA
Assay: EGFR T790M/L858R enzyme HTRF inhibition assay
Details: 20 μM ATP, read-out: EGFR L858R/T79M IC50
pIC50: −log10 of the molar value.
measure-name: pIC50

compound=C=CC(=O)Nc1cc(Nc2nccc(-c3c4n(c5ccccc35)CCOC4)n2)c(OC)cc1N(C)CCNC measure_name=pIC50 number=9.68
compound=C=CC(=O)Nc1cc(Nc2nccc(-c3c4n(c5ccccc35)CCC4)n2)c(OC)cc1OCCN(C)C measure_name=pIC50 number=9.68

[P] C=CC(=O)Nc1cc(Nc2nccc(-c3c4n(c5ccccc35)CC(F)(F)CC4)n2)c(OC)cc1N(C)CCN(C)C
[Q] C=CC(=O)Nc1cc(Nc2nccc(-c3c4n(c5ccccc35)CCC4)n2)c(OC)cc1N1CCN(C)CC1
Ask: Endpoint returns the identifier whose pIC50 is numerically larger, either P or Q . Your answer should be the label attached to the chosen record.
Result: P

Each recorded value in this set is attributed to patent US10093656B2.
